Catalogue of compounds with associated pIC50
molecular target: RIPK2 (KD)/XIAP (BIR2) (Homo sapiens, UniProt O43353); experiment: RIPK2-XIAP binding competition PPI assay (TR-FRET); conditions: GST-RIPK2 / His-XIAP (BIR2)-avi, 120 min at 23° C.
Sequence (O43353 1-310): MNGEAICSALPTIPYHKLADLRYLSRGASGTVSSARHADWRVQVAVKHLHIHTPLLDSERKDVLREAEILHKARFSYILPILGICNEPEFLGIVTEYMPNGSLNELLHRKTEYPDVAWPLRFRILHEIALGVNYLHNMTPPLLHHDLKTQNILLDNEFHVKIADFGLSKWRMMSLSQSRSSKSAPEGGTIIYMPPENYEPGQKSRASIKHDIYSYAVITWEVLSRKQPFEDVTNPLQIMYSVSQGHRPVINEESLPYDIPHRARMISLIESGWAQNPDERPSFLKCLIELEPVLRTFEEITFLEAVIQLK
pIC50: −log10 of the molar value.

# annotated cases, reported pIC50 shown
* COc1cc2ncc(-c3cc(C(=O)N[C@H](C)c4cccc(F)c4)n(C)n3)n2cc1S(=O)(=O)C(C)(C)C | 6.00 to 7.00
* COc1cc2ncc(-n3cc(C(=O)NCc4ccccc4)c(C)n3)n2cc1S(=O)(=O)C(C)(C)C | 6.00 to 7.00
* CNc1nccn2c(-c3cc(C(=O)NCc4ccccc4)n(C)n3)cnc12 | < 6.00

COc1cc2ncc(-c3cc(NC(=O)C4(F)CCCCC4)n(C)n3)n2cc1S(=O)(=O)C(C)(C)C yielded pIC50 of 6.00 to 7.00

----------
biological target: RIPK2 (KD)/XIAP (BIR2) (Homo sapiens); experiment: RIPK2-XIAP binding competition PPI assay (TR-FRET); settings: GST-RIPK2 / His-XIAP (BIR2)-avi, 120 min at 23° C.
pIC50: −log10 of the molar value.
# pIC50 listing for each entry below

Reported pIC50 of COc1cc2ncc(-c3cc(C(=O)N[C@H](C)c4ncccc4F)n(C4CN(C)C4)n3)n2cc1S(=O)(=O)C(C)(C)C : 6.00 to 7.00

----------
biological target: RIPK2 (KD)/XIAP (BIR2) (Homo sapiens); test: RIPK2-XIAP binding competition PPI assay (TR-FRET); conditions: GST-RIPK2 / His-XIAP (BIR2)-avi, 120 min at 23° C.
measured-parameter: IC50

Below, each entry is followed by its recorded IC50 result.
- COc1cc2ncc(-c3cc(C(=O)N[C@H](C)c4ccccc4F)n(C)n3)n2cc1S(=O)(=O)C(C)(C)C: 10 to 100 nM
- COc1cc2ncc(-c3cc(C(=O)N[C@H](C)c4ncccc4F)n(C)n3)n2cc1S(=O)(=O)C(C)(C)C: 10 to 100 nM
- COc1cc2ncc(-c3cc(C(=O)N[C@@H](C)c4ccccc4)n(C)n3)n2cc1S(=O)(=O)C(C)(C)C: > 1000 nM

--- query ---
The measured IC50 associated with COc1cc2ncc(-c3cc(C(=O)N[C@H](C)c4ccn(C)n4)n(C)n3)n2cc1S(=O)(=O)C(C)(C)C reads 100 to 1000 nM

----------
We begin with a simple list: items and their reported Emax.
target: RIPK2 (KD)/XIAP (BIR2) (Homo sapiens); construct: made in house; host or cells: baculovirus-infected Sf9 cells; assay: RIPK2-XIAP binding competition PPI assay (TR-FRET); settings: 50 nM of GSK583 = -100% activity, read-out: PPI Amax

// solved cases for Emax follow
* COc1cc2ncc(-c3cc(C(=O)N[C@H](C)c4nccs4)n(C)n3)n2cc1S(=O)(=O)C(C)(C)C | ≥ 80%
* COc1cc2ncc(-c3cc(C(=O)NCc4ncc(F)cc4F)n(C)n3)n2cc1S(=O)(=O)C(C)(C)C | ≥ 80%

Item COc1cc2ncc(-c3cc(C(=O)NCc4n[nH]c5cccnc45)n(C)n3)n2cc1S(=O)(=O)C(C)(C)C ; assay system RIPK2 (KD)/XIAP (BIR2) (Homo sapiens); Emax reported as ≥ 80%

Record COc1cc2ncc(-c3cc(C(=O)NCc4nccn4C)n(C)n3)n2cc1S(=O)(=O)C(C)(C)C has RIPK2 (KD)/XIAP (BIR2) (Homo sapiens) Emax equal to ≤ 30%

For the molecule COc1cc2ncc(-c3cc(C(=O)NCc4ccccc4C#N)n(C)n3)n2cc1S(=O)(=O)C(C)(C)C , the measured Emax on RIPK2 (KD)/XIAP (BIR2) (Homo sapiens) was ≥ 80%

# COc1cc2ncc(-n3cc(NC(=O)C4CC4)cn3)n2cc1S(=O)(=O)C(C)(C)C with RIPK2 (KD)/XIAP (BIR2) (Homo sapiens): Emax is ≤ 30%

Reported RIPK2 (KD)/XIAP (BIR2) (Homo sapiens) Emax for item COc1cc2ncc(-c3cc(C(=O)N[C@H](C)c4ncccc4F)n(C4CNC4)n3)n2cc1S(=O)(=O)C(C)(C)C was ≥ 80%

Lab note: molecule COc1cc2ncc(-n3cc(C(=O)NCc4c(F)cc(F)cc4F)cn3)n2cc1S(=O)(=O)C(C)(C)C tested on RIPK2 (KD)/XIAP (BIR2) (Homo sapiens); recorded Emax was 30 to 55%

The reported RIPK2 (KD)/XIAP (BIR2) (Homo sapiens) Emax of COc1cc2ncc(-c3cc(C(=O)NCc4cccnn4)n(C)n3)n2cc1S(=O)(=O)C(C)(C)C is ≤ 30%

RIPK2 (KD)/XIAP (BIR2) (Homo sapiens) data for COc1cc2ncc(-n3cc(C(=O)NCc4ccccc4)c(C)n3)n2cc1S(=O)(=O)C(C)(C)C ; its Emax: ≥ 80%

Sample COc1cc2ncc(-c3cc(C(=O)NCC4CCCCC4)n(C)n3)n2cc1S(=O)(=O)C(C)(C)C , system: RIPK2 (KD)/XIAP (BIR2) (Homo sapiens). Its Emax is ≥ 80%

Emax of COc1cc2ncc(-c3cc(C(=O)Nc4ccccc4)n(C)n3)n2cc1S(=O)(=O)C(C)(C)C , assay on RIPK2 (KD)/XIAP (BIR2) (Homo sapiens), is ≥ 80%

The molecule COCCn1nc(-c2cnc3cc(OC)c(S(=O)(=O)C(C)(C)C)cn23)cc1C(=O)N[C@H](C)c1ccccn1 , when measured on RIPK2 (KD)/XIAP (BIR2) (Homo sapiens), yielded Emax of ≥ 80%

With RIPK2 (KD)/XIAP (BIR2) (Homo sapiens) as the test system, COc1cc2ncc(-n3cc(NC(=O)[C@@H]4C[C@H]4c4ccccc4)cn3)n2cc1S(=O)(=O)C(C)(C)C showed Emax of ≥ 80%

Item COc1cc2ncc(-c3cc(C(=O)NCc4cc(F)ccn4)n(C)n3)n2cc1S(=O)(=O)C(C)(C)C was tested on RIPK2 (KD)/XIAP (BIR2) (Homo sapiens); the reported Emax is ≥ 80%

Reference for the values: patent US20260091026A1
